test: Half life in human liver microsomes; conditions: liver microsomes
PROPERTY MEASURED: half-life
// return the numeric value with its unit appended

input: Would you mind telling me what half-life value was observed for CN(C)CCCn1cc(CN2CCN(c3cc(C(=O)Nc4ccc5c(c4)-c4c(c(C(N)=O)nn4-c4ccc(F)cc4)CC5)c(Cl)cn3)CC2)cn1 ?
output: 11 min

input: Need half-life, item N#CCCn1cc(CN2CCN(c3cc(C(=O)Nc4ccc5c(c4)-c4c(c(C(N)=O)nn4-c4ccc(F)cc4)CC5)c(Cl)cn3)CC2)cn1
output: 6 min

input: Given COCCCn1cc(CN2CCN(c3cc(C(=O)Nc4ccc5c(c4)-c4c(c(C(N)=O)nn4-c4ccc(F)cc4)CC5)c(Cl)cn3)CC2)cn1 , state its recorded half-life.
output: 3 min

input: Reported half-life for CCOC(=O)Cn1cc(CN2CCN(c3cc(C(=O)Nc4ccc5c(c4)-c4c(c(C(N)=O)nn4-c4ccc(F)cc4)CC5)c(Cl)cn3)CC2)cn1 : what is it?
output: 3 min

input: Need half-life of COCCOCCCn1cc(CN2CCN(c3cc(C(=O)Nc4ccc5c(c4)-c4c(c(C(N)=O)nn4-c4ccc(F)cc4)CC5)c(Cl)cn3)CC2)cn1 , thanks.
output: 3 min

input: // lookup half-life for NC(=O)c1nn(-c2ccc(F)cc2)c2c1CCc1ccc(NC(=O)c3cc(N4CCN(Cc5cnn(CC(=O)O)c5)CC4)ncc3Cl)cc1-2
output: 120 min

input: If you can, please state the reported half-life value of CCOC(=O)Cn1cc(CN2CCN(c3cc(C(=O)Nc4ccc5c(c4)-c4c(c(C(N)=O)nn4-c4cccc(F)c4)CC5)c(Cl)cn3)CC2)cn1 .
output: 3 min

###

Please respond with reported T1/2 for every item in the list.
target: Inhibitor of nuclear factor kappa-B kinase subunit beta (Homo sapiens) (UniProt O14920); experiment: Binding affinity to human IKK2 in PBMC assessed as half life by cell-based assay
Sequence (O14920 whole entry): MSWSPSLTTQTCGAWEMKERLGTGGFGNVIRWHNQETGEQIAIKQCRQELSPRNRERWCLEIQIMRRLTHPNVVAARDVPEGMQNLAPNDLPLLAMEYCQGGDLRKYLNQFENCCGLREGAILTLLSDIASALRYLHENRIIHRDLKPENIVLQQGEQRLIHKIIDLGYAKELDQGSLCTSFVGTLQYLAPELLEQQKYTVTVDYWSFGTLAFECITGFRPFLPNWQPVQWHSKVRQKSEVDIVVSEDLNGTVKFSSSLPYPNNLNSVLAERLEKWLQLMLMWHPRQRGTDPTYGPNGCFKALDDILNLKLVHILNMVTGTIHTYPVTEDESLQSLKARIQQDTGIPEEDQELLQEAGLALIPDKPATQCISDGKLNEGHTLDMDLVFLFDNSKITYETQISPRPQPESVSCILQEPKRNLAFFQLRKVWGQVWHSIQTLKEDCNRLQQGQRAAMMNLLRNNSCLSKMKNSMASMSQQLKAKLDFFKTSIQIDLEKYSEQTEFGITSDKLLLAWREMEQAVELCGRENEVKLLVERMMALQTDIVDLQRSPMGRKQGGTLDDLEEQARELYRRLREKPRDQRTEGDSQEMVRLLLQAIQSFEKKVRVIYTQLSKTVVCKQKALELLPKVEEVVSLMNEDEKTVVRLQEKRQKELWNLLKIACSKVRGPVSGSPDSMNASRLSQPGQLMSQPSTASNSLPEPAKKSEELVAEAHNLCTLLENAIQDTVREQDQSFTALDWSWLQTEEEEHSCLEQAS

input: # lookup: T1/2 of CCOC(=O)CCn1cc(CN2CCN(c3cc(C(=O)Nc4ccc5c(c4)-c4c(c(C(N)=O)nn4-c4ccc(F)cc4)CC5)c(Cl)cn3)CC2)cn1
output: > 4 h

input: # T1/2 lookup, item CCOC(=O)Cn1cc(CN2CCN(c3cc(C(=O)Nc4ccc5c(c4)-c4c(c(C(N)=O)nn4-c4ccc(F)cc4)CC5)c(Cl)cn3)CC2)cn1
output: > 4 h

input: Consider the compound shown here: N#CCCn1cc(CN2CCN(c3cc(C(=O)Nc4ccc5c(c4)-c4c(c(C(N)=O)nn4-c4ccc(F)cc4)CC5)c(Cl)cn3)CC2)cn1 What is its recorded T1/2?
output: > 4 h

input: What T1/2 value was documented for this compound, NC(=O)c1nn(-c2ccc(F)cc2)c2c1CCc1ccc(NC(=O)c3cc(N4CCN(Cc5cnn(CC(=O)NCCO)c5)CC4)ncc3Cl)cc1-2 ?
output: < 4 h

input: Using the record for CN(C)C(=O)Cn1cc(CN2CCN(c3cc(C(=O)Nc4ccc5c(c4)-c4c(c(C(N)=O)nn4-c4ccc(F)cc4)CC5)c(Cl)cn3)CC2)cn1 , report its T1/2.
output: < 4 h

input: Would you mind telling me what T1/2 value was observed for COCCOCCCn1cc(CN2CCN(c3cc(C(=O)Nc4ccc5c(c4)-c4c(c(C(N)=O)nn4-c4ccc(F)cc4)CC5)c(Cl)cn3)CC2)cn1 ?
output: < 4 h

###

target: Inhibitor of nuclear factor kappa-B kinase subunit beta (Homo sapiens) (UniProt O14920); experiment: Binding affinity to human recombinant IKK2 assessed as half life
Decision: T1/2 beneath 4 h gives true (1); T1/2 meeting or exceeding 4 h gives false (0).

input: # strict comparison: is reported T1/2 < 4 h? input = CCn1cc(CN2CCN(c3cc(C(=O)Nc4ccc5c(c4)-c4c(c(C(N)=O)nn4-c4ccc(F)cc4)CC5)c(Cl)cn3)CC2)cn1
output: false (0)

input: Bench note: check whether CN(C)C(=O)Cn1cc(CN2CCN(c3cc(C(=O)Nc4ccc5c(c4)-c4c(c(C(N)=O)nn4-c4ccc(F)cc4)CC5)c(Cl)cn3)CC2)cn1 shows T1/2 below 4 h
output: false (0)

input: Threshold test, T1/2 < 4 h: COCCN1CCN(c2cc(C(=O)Nc3ccc4c(c3)-c3c(c(C(N)=O)nn3-c3ccc(F)cc3)CC4)c(Cl)cn2)CC1
output: true (1)

input: Report whether reported T1/2 is lower than 4 h (strictly) for CN1CCN(c2cc(C(=O)Nc3ccc4c(c3)-c3c(c(C(N)=O)nn3-c3ccc(F)cc3)CC4)c(Cl)cn2)CC1
output: true (1)

input: Input NC(=O)c1nn(-c2ccc(F)cc2)c2c1CCc1ccc(NC(=O)c3cc(N4CCC(O)CC4)ncc3Cl)cc1-2 ; condition: T1/2 strictly below 4 h. Does it hold?
output: true (1)

input: Strictly below 4 h: is that where T1/2 of COCCNC(=O)Cn1cc(CN2CCN(c3cc(C(=O)Nc4ccc5c(c4)-c4c(c(C(N)=O)nn4-c4ccc(F)cc4)CC5)c(Cl)cn3)CC2)cn1 sits?
output: false (0)

input: Please state whether T1/2 is below 4 h for CN1CCN(c2cc(C(=O)Nc3ccc4c(c3)-c3c(c(C(N)=O)nn3-c3cccc(O)c3)CC4)c(Cl)cn2)CC1
output: true (1)

input: Answer whether the compound NC(=O)c1nn(-c2ccc(F)cc2)c2c1CCc1ccc(NC(=O)c3cc(N4CCN(Cc5cn[nH]c5)CC4)ncc3Cl)cc1-2 has T1/2 strictly less than 4 h
output: true (1)

input: Is it true that T1/2 reported for CNC(=O)Cn1cc(CN2CCN(c3cc(C(=O)Nc4ccc5c(c4)-c4c(c(C(N)=O)nn4-c4ccc(F)cc4)CC5)c(Cl)cn3)CC2)cn1 is less than 4 h?
output: false (0)

input: # strict comparison: is reported T1/2 < 4 h? input = CN1CCN(c2cc(C(=O)Nc3ccc4c(c3)-c3c(c(C(N)=O)nn3-c3ccc(O)c(Cl)c3)CC4)c(Cl)cn2)CC1
output: true (1)

input: Lab note: T1/2 threshold 4 h. Does this compound come in strictly under it? CCOC(=O)Cn1cc(CN2CCN(c3cc(C(=O)Nc4ccc5c(c4)-c4c(c(C(N)=O)nn4-c4cccc(F)c4)CC5)c(Cl)cn3)CC2)cn1
output: false (0)

input: API: query returns whether the compound falls strictly under 4 h in T1/2. Query: CN1CCN(c2cc(C(=O)Nc3ccc4c(c3)-c3c(c(C(N)=O)nn3-c3ccc(O)cc3)CC4)c(Cl)cn2)CC1
output: true (1)

input: Does the reported T1/2 of COCCNc1cc(C(=O)Nc2ccc3c(c2)-c2c(c(C(N)=O)nn2-c2ccc(F)cc2)CC3)c(Cl)cn1 stay below 4 h?
output: true (1)

input: Confirm or reject: T1/2 of Cn1cc(CN2CCN(c3cc(C(=O)Nc4ccc5c(c4)-c4c(c(C(N)=O)nn4-c4ccc(F)cc4)CC5)c(Cl)cn3)C(C(=O)O)C2)cn1 (stereo not drawn) lies strictly below 4 h
output: false (0)

input: I'd appreciate it if you could check whether CCOC(=O)CCn1cc(CN2CCN(c3cc(C(=O)Nc4ccc5c(c4)-c4c(c(C(N)=O)nn4-c4ccc(F)cc4)CC5)c(Cl)cn3)CC2)cn1 has T1/2 smaller than 4 h.
output: false (0)

input: Decide: T1/2 of NC(=O)Cn1cc(CN2CCN(c3cc(C(=O)Nc4ccc5c(c4)-c4c(c(C(N)=O)nn4-c4ccc(F)cc4)CC5)c(Cl)cn3)CC2)cn1 strictly below 4 h?
output: false (0)

input: Does the reported T1/2 of the following compound sit strictly below 4 h? NC(=O)c1nn(-c2ccc(F)cc2)c2c1CCc1ccc(NC(=O)c3cc(N4CCN(Cc5cnn(CCCO)c5)CC4)ncc3Cl)cc1-2
output: false (0)

input: Determine if COC(=O)Cn1cc(CN2CCN(c3cc(C(=O)Nc4ccc5c(c4)-c4c(c(C(N)=O)nn4-c4ccc(F)cc4)CC5)c(Cl)cn3)CC2)cn1 shows T1/2 strictly lower than 4 h.
output: false (0)

input: Bench note: check whether CCOC(=O)Cn1cc(CN2CCN(c3cc(C(=O)Nc4ccc5c(c4)-c4c(c(C(N)=O)nn4-c4ccc(F)cc4)CC5)c(Cl)cn3)CC2)cn1 shows T1/2 below 4 h
output: false (0)

input: # check: T1/2 < 4 h for Cc1nn(C)cc1CN1CCN(c2cc(C(=O)Nc3ccc4c(c3)-c3c(c(C(N)=O)nn3-c3ccc(F)cc3)CC4)c(Cl)cn2)CC1
output: false (0)

input: I wonder whether CN(C)CCCNC(=O)Cn1cc(CN2CCN(c3cc(C(=O)Nc4ccc5c(c4)-c4c(c(C(N)=O)nn4-c4ccc(F)cc4)CC5)c(Cl)cn3)CC2)cn1 has T1/2 below 4 h. Can you tell?
output: false (0)

input: Could you please tell me whether T1/2 recorded for Cn1cc(CN2CCN(c3cc(C(=O)Nc4ccc5c(c4)-c4c(c(C(N)=O)nn4-c4cccc(F)c4)CC5)c(Cl)cn3)CC2)cn1 is less than 4 h?
output: true (1)

input: Quick check: does CN1CCN(c2cc(C(=O)Nc3ccc4c(c3)-c3c(c(C(N)=O)nn3-c3ccc(Cl)c(O)c3)CC4)c(Cl)cn2)CC1 have T1/2 under 4 h?
output: true (1)
